Just for reference, patent US9890185B2 is where these values come from.

pIC50: −log10 of the molar value.
GSK 3α (Homo sapiens (Human), UniProt P49840): reported pIC50 for various compounds.
Sequence (P49840 whole entry): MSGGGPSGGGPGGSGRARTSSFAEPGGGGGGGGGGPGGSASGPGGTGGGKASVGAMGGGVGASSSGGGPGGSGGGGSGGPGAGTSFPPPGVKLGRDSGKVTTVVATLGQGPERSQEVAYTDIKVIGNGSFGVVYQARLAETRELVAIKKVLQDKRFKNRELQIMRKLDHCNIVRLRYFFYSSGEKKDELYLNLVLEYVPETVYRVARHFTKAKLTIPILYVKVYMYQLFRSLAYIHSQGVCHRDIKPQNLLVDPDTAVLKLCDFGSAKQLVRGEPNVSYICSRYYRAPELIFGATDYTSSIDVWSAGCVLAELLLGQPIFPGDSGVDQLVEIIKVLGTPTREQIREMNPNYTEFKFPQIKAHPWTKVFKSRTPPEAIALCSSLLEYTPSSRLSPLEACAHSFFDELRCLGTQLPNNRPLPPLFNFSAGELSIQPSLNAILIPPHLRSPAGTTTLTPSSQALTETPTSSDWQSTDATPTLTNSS

Please review the following examples before continuing.
CNC(=O)Cc1cc(C(C)(C)C)cc(NC(=O)Nc2ccc(Oc3ccnc(Nc4cccc(OC)c4)c3)c3ccccc23)c1OC = < 4.84
COc1c(NC(=O)Nc2ccc(Oc3ccnc(Nc4ccccc4)c3)c3ccccc23)cc(C(C)(C)C)cc1[S+](C)[O-] (stereo not drawn) = < 5.02

Attention now turns to another entry.
# input compound: COCCOCCOCCNC(=O)c1cc(Nc2cc(Oc3ccc(NC(=O)Nc4cc(C(C)(C)C)cc(C(=O)NCCN5CCOCC5)c4OC)c4ccccc34)ccn2)cc(OC)c1 ; wanted: its pIC50
5.60

----------
# Test system: PBMCs
# test-summary: IL-2 release in CD3/CD28 stimulated PBMC cells (assay c)
# Assay type: cell-based
# settings: Homo sapiens, read-out: IC50 Values for Inhibition of Cytokine Release, PBMCs IL-2
# Procedure: PBMCs from healthy subjects are separated from whole blood using a density gradient (Lymphoprep, Axis-Shield Healthcare). Cells are added to a 96 well plate pre-coated with a mixture of CD3/CD28 monoclonal antibodies (0.3 μg/mL eBioscience and 3 μg/mL BD Pharmingen respectively). […] Supernatants are harvested and IL-2 and IFN gamma release determined by Sandwich ELISA (Duo-set, R&D System). The IC50 is determined from the dose response curve.
So I've got a bunch of molecules here, and I need their pIC50 values.
Answers are plain numbers, as −log10 of the molar value.

Each of the following entries comes with a recorded value; kindly state pIC50 for each.
1. CNC(=O)Cc1cc(C(C)(C)C)cc(NC(=O)Nc2ccc(Oc3ccnc(Nc4cccc(OC)c4)c3)c3ccccc23)c1OC
2. COCCOCCOCCOc1cc(Nc2cc(Oc3ccc(NC(=O)Nc4cc(C(C)(C)C)cc(P(C)(C)=O)c4OC)c4ccccc34)ccn2)cc(OC)c1
3. COCCOCCOCCOc1cc(Nc2cc(Oc3ccc(NC(=O)Nc4cc(C(C)(C)C)cc(S(C)(=O)=O)c4OC)c4ccccc34)ccn2)cc(OC)c1

6.79
7.12
7.37

----------
# Tested on: PBMCs
# test-summary: LPS-induced IL-8 release in PBMC cells (assay b)
# Format: cell-based, human
# settings: Homo sapiens, PBMC; LPS-stimulated PBMCs; read-out: IC50 Values for Inhibition of Cytokine Release, PBMCs IL-8
reported-endpoint: pIC50
Answers are plain numbers, as −log10 of the molar value.

Please review the following examples before continuing.
COc1c(CC(N)=O)cc(C(C)(C)C)cc1NC(=O)Nc1ccc(Oc2ccnc(Nc3cc(C)cc(C)c3)c2)c2ccccc12 [38(f)] = 8.26
COc1c(CC(N)=O)cc(C(C)(C)C)cc1NC(=O)Nc1ccc(Oc2ccnc(Nc3ccccc3)c2)c(F)c1F [38(l)] = 8.23
COCCOCCOCCOc1cc(Nc2cc(Oc3ccc(NC(=O)Nc4cc(C(C)(C)C)cc(CS(C)(=O)=O)c4OC)c4ccccc34)ccn2)cc(OC)c1 [15(a)] = 8.44
COc1c(NC(=O)Nc2ccc(Oc3ccnc(Nc4ccccc4)n3)c3ccccc23)cc(C(C)(C)C)cc1C(=O)NCCN1CCOCC1 [15(p)] = 8.03
COCCOCCOCCOc1cc(Nc2nccc(Oc3ccc(NC(=O)Nc4cc(C(C)(C)C)cc(P(C)(C)=O)c4OC)c4ccccc34)n2)cc(OC)c1 [Example 1] = 8.96

Attention now turns to another entry.
# input compound: COc1cc(Nc2nccc(Oc3ccc(NC(=O)Nc4cc(C(C)(C)C)cc(OCP(C)(C)=O)c4OC)c4ccccc34)n2)cc(OC)c1 [Example 20] ; wanted: its pIC50
8.60
